- assay.system: MAGI2_4, Q86UL8
- Sequence (Q86UL8 772-865): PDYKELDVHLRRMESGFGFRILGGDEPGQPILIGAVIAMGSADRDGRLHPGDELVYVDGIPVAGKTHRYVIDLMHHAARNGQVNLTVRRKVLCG
- assay.remarks: holdup assay
- Parameters: key: below the threshold = too weak to quantify, mostly under pKd 3.1 to 4
- conditions.used: plain residues with an end cap or a label only (N-terminal biotin on a linker: ado-ado)
Give rule met when the value for pKd is at least 4. Give rule not met when it is less.

Does NIAESLESLV [PTPRZ1, P23471] have a reported pKd of at least 4?
rule met

Does DRIQSCLSDA [SBF1, O95248] have a reported pKd of at least 4?
rule not met

Does VLYPREGTEV [FOXI1, Q12951] have a reported pKd of at least 4?
rule met

Does IDESKKEWLI [CNTNAP2, Q9UHC6] have a reported pKd of at least 4?
rule not met

Does QLSFNTDTLC [ABCA2, Q9BZC7] have a reported pKd of at least 4?
rule met

Does DPAESMESLV [PTPRG, P23470] have a reported pKd of at least 4?
rule met
